measured_target: human C5 protein (human, UniProt P01031 19-673; P01031 678-1676)
assay_info: cell-based or functional assay
Starred links: 1 amine or outer side, 2 acyl side, 3 side chain; linkers in the order of their positions; H or OH if unused. Positions of bridges follow the written chain, without caps; N, C: chain ends. Non-standard residues stand in square brackets, D forms with d. Primed or numbered codes have the meaning given here. mXylyl(3) = bridging moiety between the two residues given in brackets; mXylyl″ = bridging moiety between the two marked residues; Trp(7-aza) = N[C@@H](Cc1c[nH]c2ncccc12)C(=O)O; pXylylene = c1cc(C[*:2])ccc1C[*:1]; dChg = N[C@@H](C(=O)O)C1CCCCC1; Phg = N[C@H](C(=O)O)c1ccccc1; NMeS = CN[C@@H](CO)C(=O)O; hCys = N[C@@H](CCS)C(=O)O; Nva = CCC[C@H](N)C(=O)O
Attribute: Avg. IC50, human hemolysis assay

{"columns": ["binder", "Avg. IC50, human hemolysis assay"],
 "data": [
  ["Ac-C[Phg]T[Trp(7-aza)]EY[NMeS]HC-NH2 (linker 1-9 via mXylyl″) [R3015]", "> 3.96 µM"],
  ["Ac-[Nva]C[dChg]T[Trp(7-aza)]EY[NMeS]AC[Nva]-NH2 (linker 2-10 via mXylyl(3)) [R3093]", "> 100 µM"],
  ["Ac-[Nva][hCys][Phg]T[Trp(7-aza)]EY[NMeS]H[hCys][Nva]-NH2 (linker 2-10 via pXylylene; SMILES CCC[C@H](NC(=O)[C@@H]1CCSCc2ccc(cc2)CSCC[C@H](NC(=O)[C@H](CCC)NC(C)=O)C(=O)N[C@@H](c2ccccc2)C(=O)N[C@@H]([C@@H](C)O)C(=O)N[C@@H](Cc2c[nH]c3ncccc23)C(=O)N[C@@H](CCC(=O)O)C(=O)N[C@@H](Cc2ccc(O)cc2)C(=O)N(C)[C@@H](CO)C(=O)N[C@@H](Cc2c[nH]cn2)C(=O)N1)C(N)=O) [R3108]", "> 75 µM"]
]}

// provenance: patent US20210283212A1
